Catalogue of log10 of ED50 values
system: generalized trembling caused by an interperitoneal injection (200 mg/kg) of dl-5-hydroxytryptophane; experiment: Test A: potentiation in mice of generalized trembling caused by dl-5-hydroxytryptophane; format: in vivo; details: Mus musculus, po, dl-5-hydroxytryptophane 200 mg/kg intraperitoneal, read-out: Test A ED 50
All values: base-10 log of ED50 in mg/kg.

Some solved entries appear below for comparison.
CCCC(=O)c1ccc(N2CC(CO)OC2=O)cc1 (stereo not shown); 1.54
O=C1OC(CO)CN1c1ccc(OCC2CCCCO2)cc1 (stereo not shown); 1.70
O=C1OC(CO)CN1c1ccc(OCC2CCCOC2)cc1 (stereo not shown); 0.64
CCC(=O)c1ccc(N2CC(CO)OC2=O)cc1 (stereo not shown); 1.46
O=C1OC(CO)CN1c1ccc(OCc2ccc(Cl)c([N+](=O)[O-])c2)cc1 (stereo not shown); 1.40

Quick one: log10 of ED50 of CCC(CC)COc1ccc(N2CC(CO)OC2=O)cc1 (stereo not shown) ? 1.40
